Measured pEC50 of individual entries
- assayed system: Peroxisome proliferator-activated receptor gamma (Homo sapiens, UniProt P37231)
- Sequence (P37231 whole entry): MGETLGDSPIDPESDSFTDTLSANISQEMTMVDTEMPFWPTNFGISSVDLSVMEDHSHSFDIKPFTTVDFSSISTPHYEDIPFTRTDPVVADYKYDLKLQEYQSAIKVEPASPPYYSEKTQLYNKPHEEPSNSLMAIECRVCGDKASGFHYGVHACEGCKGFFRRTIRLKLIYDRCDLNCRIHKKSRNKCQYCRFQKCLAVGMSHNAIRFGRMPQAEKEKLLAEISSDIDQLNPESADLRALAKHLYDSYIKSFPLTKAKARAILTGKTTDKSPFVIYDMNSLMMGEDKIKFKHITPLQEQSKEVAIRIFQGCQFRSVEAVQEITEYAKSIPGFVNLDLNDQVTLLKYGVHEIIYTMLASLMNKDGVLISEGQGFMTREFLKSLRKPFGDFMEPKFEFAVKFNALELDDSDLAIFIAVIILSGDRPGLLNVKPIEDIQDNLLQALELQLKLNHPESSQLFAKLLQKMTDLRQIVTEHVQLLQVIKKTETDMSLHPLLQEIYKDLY
- test: Agonist activity at human PPARgamma expressed in CHO cells co-transfected with pGL3-PPRE3-TK-luc assessed as transactivation after 24 hrs by firefly luciferase reporter gene assay
pEC50: −log10 of the molar value.
metric: pEC50

>>> print(df.to_string())
                                   compound                            assayed_system  metric  value_operator  numeric_value
0        CCC/C=C\C#C/C=C/C(=O)CCCCCCCC(=O)O  Peroxisome proliferator-activated receptor gamma (Homo sapiens, UniProt P37231)   pEC50               =           5.73
1  CCC/C=C\C#C/C=C/C(O)CCCCCCCC(=O)O (configuration not stated)  Peroxisome proliferator-activated receptor gamma (Homo sapiens, UniProt P37231)   pEC50               <           4.16

Origin of the recorded values: ChEMBL document CHEMBL1955826
